Tested on: Vibrio cholerae
Test: Antibacterial activity against Vibrio cholerae MTCC 3906 after 24 to 48 hrs by broth microdilution method
Assay type: functional
Let's look at some compounds and their measured log10 MIC.
Could you please treat all values as log10 of MIC in µM?

// solved cases for log10 MIC follow
compound: O=C(O)c1cn(C2CC2)c2cc(N3CCNCC3)c(F)cc2c1=O
target_or_system: Vibrio cholerae
log10 MIC: 1.88
//
compound: O=C(N[C@H](CO)[C@H](O)c1ccc([N+](=O)[O-])cc1)C(Cl)Cl
target_or_system: Vibrio cholerae
log10 MIC: 2.19
//
compound: NC(=S)N1N=C(c2ccc(F)cc2)CC1c1cc2ccccc2nc1N1CCOCC1 (centres undefined)
target_or_system: Vibrio cholerae
log10 MIC: 2.76

Kindly review the next compound as well.
stdin: Look up log10 MIC for this compound: COc1ccc(C2=NN(C=O)C(c3cc4ccccc4nc3N3CCOCC3)C2)cc1 (centres undefined)
stdout: 2.68

* * *

System: Aspergillus fumigatus
Assay: Antifungal activity against Aspergillus fumigatus MTCC 3008 after 24 to 48 hrs by broth microdilution method
Assay type: functional
Let's look at some compounds and their measured MIC.
Reply with the number and its unit after it.

// solved cases for MIC follow
compound: O=CN1N=C(c2ccc(Br)cc2)CC1c1cc2ccccc2nc1N1CCOCC1 (stereo not given)
target_or_system: Aspergillus fumigatus
MIC: 1070 µM

compound: Fc1ccc(N2N=C(c3ccc(Br)cc3)CC2c2cc3ccccc3nc2N2CCOCC2)cc1 (stereo not given)
target_or_system: Aspergillus fumigatus
MIC: 940 µM

stdin: Look up MIC for this compound: COc1ccc(C2=NN(C=O)C(c3cc4ccccc4nc3N3CCOCC3)C2)cc1 (stereo not given)
stdout: 2400 µM

stdin: Look up MIC for this compound: COc1ccc(C2=NN(C(N)=S)C(c3cc4ccccc4nc3N3CCOCC3)C2)cc1 (stereo not given)
stdout: 223 µM

stdin: Look up MIC for this compound: CC(=O)N1N=C(c2ccc(F)cc2)CC1c1cc2ccccc2nc1N1CCOCC1 (stereo not given)
stdout: 1190 µM

stdin: Look up MIC for this compound: NC(=S)N1N=C(c2ccc(F)cc2)CC1c1cc2ccccc2nc1N1CCOCC1 (stereo not given)
stdout: 1150 µM

stdin: Look up MIC for this compound: NC(=S)N1N=C(c2ccc(Br)cc2)CC1c1cc2ccccc2nc1N1CCOCC1 (stereo not given)
stdout: 1010 µM

* * *

Test system: Aspergillus fumigatus
Assay: Antifungal activity against Aspergillus fumigatus MTCC 3008 after 24 to 48 hrs by broth microdilution method
Format: functional
observation_type: MIC (µM)
Kindly provide the numeric value in µM only, without the unit symbol.

// solved cases for MIC follow
compound: NC(=S)N1N=C(c2ccc(Cl)cc2)CC1c1cc2ccccc2nc1N1CCOCC1 (configuration not stated)
units: µM
MIC: 221
//
compound: CC(=O)N1N=C(c2ccc(Cl)cc2)CC1c1cc2ccccc2nc1N1CCOCC1 (configuration not stated)
units: µM
MIC: 1150
//
compound: COC1=CC(=O)C[C@@H](C)[C@]12Oc1c(Cl)c(OC)cc(OC)c1C2=O [GRISEOFULVIN]
units: µM
MIC: 283
//
compound: COc1ccc(C2=NN(c3ccc(F)cc3)C(c3cc4ccccc4nc3N3CCOCC3)C2)cc1 (configuration not stated)
units: µM
MIC: 207

stdin: Look up MIC for this compound: CC(=O)N1N=C(c2ccc(Br)cc2)CC1c1cc2ccccc2nc1N1CCOCC1 (configuration not stated)
stdout: 208

* * *

System: Vibrio cholerae
Assay: Antibacterial activity against Vibrio cholerae MTCC 3906 after 24 to 48 hrs by broth microdilution method
Format: functional
observation_type: MIC (µM)
Kindly provide the numeric value in µM only, without the unit symbol.

// solved cases for MIC follow
molecule: CC(=O)N1N=C(c2ccc(Cl)cc2)CC1c1cc2ccccc2nc1N1CCOCC1 (stereo unspecified)
MIC, µM: 229
//
molecule: NC(=S)N1N=C(c2ccc(Cl)cc2)CC1c1cc2ccccc2nc1N1CCOCC1 (stereo unspecified)
MIC, µM: 221

stdin: Look up MIC for this molecule: O=CN1N=C(c2ccc(F)cc2)CC1c1cc2ccccc2nc1N1CCOCC1 (stereo unspecified)
stdout: 618

stdin: Look up MIC for this molecule: COc1ccc(C2=NN(c3ccc(F)cc3)C(c3cc4ccccc4nc3N3CCOCC3)C2)cc1 (stereo unspecified)
stdout: 518

stdin: Look up MIC for this molecule: COc1ccc(C2=NN(C(C)=O)C(c3cc4ccccc4nc3N3CCOCC3)C2)cc1 (stereo unspecified)
stdout: 1160

stdin: Look up MIC for this molecule: Fc1ccc(N2N=C(c3ccc(Br)cc3)CC2c2cc3ccccc3nc2N2CCOCC2)cc1 (stereo unspecified)
stdout: 470

stdin: Look up MIC for this molecule: CC(=O)N1N=C(c2ccc(Br)cc2)CC1c1cc2ccccc2nc1N1CCOCC1 (stereo unspecified)
stdout: 1040

stdin: Look up MIC for this molecule: NC(=S)N1N=C(c2ccc(Br)cc2)CC1c1cc2ccccc2nc1N1CCOCC1 (stereo unspecified)
stdout: 201

stdin: Look up MIC for this molecule: O=CN1N=C(c2ccc(Br)cc2)CC1c1cc2ccccc2nc1N1CCOCC1 (stereo unspecified)
stdout: 214

stdin: Look up MIC for this molecule: `CC1(C)S[C@@H]2[C@H](NC(=O)[C@H](N)c3ccccc3)C(=O)N2[C@H]1C(=O)O`
stdout: 286

stdin: Look up MIC for this molecule: Fc1ccc(C2=NN(c3ccc(F)cc3)C(c3cc4ccccc4nc3N3CCOCC3)C2)cc1 (stereo unspecified)
stdout: 132

* * *

Test system: Schizosaccharomyces pombe
Assay: Cytotoxicity against Schizosaccharomyces pombe at 2.5 to 12.5 ug/ml after 17 hrs by trypan blue exclusion method
Type: organism-based
Details: in vivo
observation_type: Activity

// solved cases for Activity follow
compound: O=CN1N=C(c2ccc(Cl)cc2)CC1c1cc2ccccc2nc1N1CCOCC1 (configuration not stated)
Activity: Toxic
--
compound: Fc1ccc(N2N=C(c3ccc(Br)cc3)CC2c2cc3ccccc3nc2N2CCOCC2)cc1 (configuration not stated)
Activity: Non-toxic
--
compound: NC(=S)N1N=C(c2ccc(Br)cc2)CC1c1cc2ccccc2nc1N1CCOCC1 (configuration not stated)
Activity: Non-toxic
--
compound: COc1ccc(C2=NN(c3ccc(F)cc3)C(c3cc4ccccc4nc3N3CCOCC3)C2)cc1 (configuration not stated)
Activity: Non-toxic

stdin: Look up Activity for this compound: CC(=O)N1N=C(c2ccc(Br)cc2)CC1c1cc2ccccc2nc1N1CCOCC1 (configuration not stated)
stdout: Toxic

stdin: Look up Activity for this compound: COc1ccc(C2=NN(C(C)=O)C(c3cc4ccccc4nc3N3CCOCC3)C2)cc1 (configuration not stated)
stdout: Toxic

stdin: Look up Activity for this compound: O=CN1N=C(c2ccc(Br)cc2)CC1c1cc2ccccc2nc1N1CCOCC1 (configuration not stated)
stdout: Non-toxic

* * *

Let's look at some molecules and their measured MIC.
Tested on: Vibrio cholerae
Assay: Antibacterial activity against Vibrio cholerae MTCC 3906 after 24 to 48 hrs by broth microdilution method
Assay type: functional
Kindly provide the numeric value in µM only, without the unit symbol.

// solved cases for MIC follow
molecule: CC(=O)N1N=C(c2ccc(F)cc2)CC1c1cc2ccccc2nc1N1CCOCC1 (stereo not given)
MIC (µM): 597

molecule: O=CN1N=C(c2ccc(Cl)cc2)CC1c1cc2ccccc2nc1N1CCOCC1 (stereo not given)
MIC (µM): 237

molecule: COc1ccc(C2=NN(C(N)=S)C(c3cc4ccccc4nc3N3CCOCC3)C2)cc1 (stereo not given)
MIC (µM): 558

molecule: Fc1ccc(N2N=C(c3ccc(Cl)cc3)CC2c2cc3ccccc3nc2N2CCOCC2)cc1 (stereo not given)
MIC (µM): 513

Kindly review the next molecule as well.
stdin: Look up MIC for this molecule: `CCn1cc(C(=O)O)c(=O)c2cc(F)c(N3CCNCC3)cc21`
stdout: 31

* * *

System: Aspergillus fumigatus
Assay: Antifungal activity against Aspergillus fumigatus MTCC 3008 after 24 to 48 hrs by broth microdilution method
Type: functional
observation_type: MIC (µM)
Kindly provide the numeric value in µM only, without the unit symbol.

// solved cases for MIC follow
compound: Fc1ccc(C2=NN(c3ccc(F)cc3)C(c3cc4ccccc4nc3N3CCOCC3)C2)cc1 (stereo not drawn)
MIC, µM: 2120
//
compound: COc1ccc(C2=NN(C(C)=O)C(c3cc4ccccc4nc3N3CCOCC3)C2)cc1 (stereo not drawn)
MIC, µM: 1160

Kindly review the next compound as well.
stdin: Look up MIC for this compound: Fc1ccc(N2N=C(c3ccc(Cl)cc3)CC2c2cc3ccccc3nc2N2CCOCC2)cc1 (stereo not drawn)
stdout: 205
